SYSTEM TESTED: human complement C3 (human, UniProt P01024 23-1663)
Sequence (P01024 23-1663 limits assumed): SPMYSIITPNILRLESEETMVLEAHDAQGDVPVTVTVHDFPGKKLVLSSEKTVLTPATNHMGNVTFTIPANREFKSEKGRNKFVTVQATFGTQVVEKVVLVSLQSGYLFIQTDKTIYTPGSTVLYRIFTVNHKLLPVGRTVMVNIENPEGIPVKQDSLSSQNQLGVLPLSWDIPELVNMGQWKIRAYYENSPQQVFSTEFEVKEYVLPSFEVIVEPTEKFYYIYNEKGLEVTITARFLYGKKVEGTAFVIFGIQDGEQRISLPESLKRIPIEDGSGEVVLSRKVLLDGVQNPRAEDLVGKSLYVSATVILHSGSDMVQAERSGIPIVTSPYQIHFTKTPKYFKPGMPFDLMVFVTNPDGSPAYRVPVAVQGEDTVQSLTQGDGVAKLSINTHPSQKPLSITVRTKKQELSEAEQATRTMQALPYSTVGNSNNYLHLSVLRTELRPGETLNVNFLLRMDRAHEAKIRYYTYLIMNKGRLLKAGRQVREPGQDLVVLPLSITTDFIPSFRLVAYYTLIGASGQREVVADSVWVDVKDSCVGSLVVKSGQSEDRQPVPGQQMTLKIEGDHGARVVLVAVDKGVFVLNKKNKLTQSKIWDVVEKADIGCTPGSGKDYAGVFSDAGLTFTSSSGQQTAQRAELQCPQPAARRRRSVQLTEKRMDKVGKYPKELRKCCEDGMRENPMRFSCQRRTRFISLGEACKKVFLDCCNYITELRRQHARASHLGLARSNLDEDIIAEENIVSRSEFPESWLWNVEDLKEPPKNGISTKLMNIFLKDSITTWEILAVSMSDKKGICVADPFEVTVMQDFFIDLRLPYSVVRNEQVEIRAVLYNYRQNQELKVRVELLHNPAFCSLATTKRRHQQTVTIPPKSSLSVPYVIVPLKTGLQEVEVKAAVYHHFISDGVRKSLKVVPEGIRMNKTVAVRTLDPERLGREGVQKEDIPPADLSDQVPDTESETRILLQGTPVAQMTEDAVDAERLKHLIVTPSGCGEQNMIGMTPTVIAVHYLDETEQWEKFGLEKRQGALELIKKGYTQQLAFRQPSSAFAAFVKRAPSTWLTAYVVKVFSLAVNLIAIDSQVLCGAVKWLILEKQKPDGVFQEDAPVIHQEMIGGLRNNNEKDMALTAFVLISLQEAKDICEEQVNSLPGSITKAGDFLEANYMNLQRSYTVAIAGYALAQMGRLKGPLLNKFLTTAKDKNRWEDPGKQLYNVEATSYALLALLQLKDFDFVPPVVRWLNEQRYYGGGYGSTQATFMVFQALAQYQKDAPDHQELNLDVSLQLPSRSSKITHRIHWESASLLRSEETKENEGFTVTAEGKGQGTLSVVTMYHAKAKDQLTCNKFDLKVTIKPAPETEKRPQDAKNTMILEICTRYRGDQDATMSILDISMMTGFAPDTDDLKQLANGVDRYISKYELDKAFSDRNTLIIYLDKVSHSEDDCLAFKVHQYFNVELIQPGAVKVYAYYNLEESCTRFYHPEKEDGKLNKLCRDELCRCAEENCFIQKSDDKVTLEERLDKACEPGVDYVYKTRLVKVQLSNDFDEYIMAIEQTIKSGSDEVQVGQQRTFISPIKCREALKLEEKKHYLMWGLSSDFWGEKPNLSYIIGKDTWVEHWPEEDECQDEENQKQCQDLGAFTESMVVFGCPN
METHOD: cell-based or functional assay
IC50, complement inhibition in the classical pathway listing for selected binders.
// return numeric value only (unit: nM, not printed)

Reference set (3 entries):
>>> test_result("Clone XII (scFv) scFv: MQLVLTQSPSASASLGASVKLTCTLSSAHKTYTIDWYQQQPEKCPRYLMQLKSEGSYTKGTGVPDRFSGSSSGAERYLTISSLQSEDEADYYCGTDYGGGYVFGGGTKLTVLGGGGGSGGGGSGGGGSGGGGSQVQVVESGGGSVQPGRSLRLSCAVSGFSLYNYAMNWVRQAPGKGLEWIGIINVGGGTNYASWAKGRFTISTDNSKNTVYLQMNSLRAEDTASYYCARAVGYHHARLDPWGCGTSVTVSS")
98
>>> test_result("Clone XIII (scFv) scFv: MQLVLTQSPSASASLGASVKLTCTLSSAHKTYTIDWYQQQPEKCPRYLMQLKSEGSYTKGTGVPDRFSGSSSGAERYLTISSLQSEDEADYYCGTEGVGGYVFGGGTKLTVLGGGGGSGGGGSGGGGSGGGGSQVQVVESGGGSVQPGRSLRLSCAVSGFSLYNYAMNWVRQAPGKGLEWIGIINVGGGTNYASWAKGRFTISTDNSKNTVYLQMNSLRAEDTASYYCARAVGYHHARLDPWGCGTSVTVSS")
60
>>> test_result("Clone XIV (scFv, also called Cone XIV) scFv: MQLVLTQSPSASASLGASVKLTCTLSSAHKTYTIDWYQQQPEKCPRYLMQLKSEGSYTKGTGVPDRFSGSSSGAERYLTISSLQSEDEADYYCGTEGVGGYVFGGGTKLTVLGGGGGSGGGGSGGGGSGGGGSQVQVVESGGGSVQPGRSLRLSCAVSGFSLYNYAMNWVRQAPGKGLEWIGIINVGGGTNYASWAKGRFTISTDNSKNTVYLQMNSLRAEDTASYYCARAVGYHHSRLDPWGCGTSVTVSS")
50

Consider now this further binder.
-- ask Which value of IC50, complement inhibition in the classical pathway has been reported for Clone IV (scFv) scFv: QSVKESGGRLVTPGTPLTLTCTVSGFSLYNYAMNWVRQAPGKGLEWIGIINTDGNTNYASWAKGRFTISTTSSTTVDLKITSPTTEDTATYFCPRAVGYHHHALDPWGPGTLVTVSSGGGGSGGGGSGGGGSGGGGASELVLTQSPSVSAALGASAKLTCTLSSAHKTYTIDWYQQQQGEAPRYLMQLKSDGSYTKGTGVPDRFSGSSSGADRYLIIPSVQADDEADYYCGTDYGGGYVFGGGTQLTVTG in the records?
-- reply 80

Data provenance: patent US12344663
